Biological target: T1, human GM-CSFRα, full length on cells (human, UniProt P15509 23-400)
T1 sequence: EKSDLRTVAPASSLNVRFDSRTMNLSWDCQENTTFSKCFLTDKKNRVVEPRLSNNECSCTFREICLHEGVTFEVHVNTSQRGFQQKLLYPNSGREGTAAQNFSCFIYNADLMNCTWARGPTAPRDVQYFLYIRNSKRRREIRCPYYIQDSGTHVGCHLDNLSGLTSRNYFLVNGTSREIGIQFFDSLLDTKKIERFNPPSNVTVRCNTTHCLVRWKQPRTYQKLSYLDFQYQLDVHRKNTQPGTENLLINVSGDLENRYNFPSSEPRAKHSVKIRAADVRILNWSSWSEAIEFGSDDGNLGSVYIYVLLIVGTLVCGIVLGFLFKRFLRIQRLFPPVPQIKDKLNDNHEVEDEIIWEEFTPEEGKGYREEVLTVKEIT
Experiment: cell-based or functional assay
Can you tell me IC50, TF-1 cell proliferation for the items I'm about to list?
Numbers only, in µg/mL.

E35-scFv LS31Q (scFv, V domains shown) VH: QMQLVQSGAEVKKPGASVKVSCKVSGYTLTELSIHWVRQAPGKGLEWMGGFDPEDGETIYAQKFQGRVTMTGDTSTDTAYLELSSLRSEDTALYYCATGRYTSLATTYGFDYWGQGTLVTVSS VL: EIVMTQSPATLSLSPGERATLSCRASQSVSQYLAWYQQKPGQAPRLLIYGASSRATGIPDRFSGSGSGTDFTLTISRLEPEDFAVYYCQQYDNWPYTFGQGTKLEIK; 0.117

Batch request: IC50, TF-1 cell proliferation per item, same order as input.
1. E35-scFv LS31P (scFv, V domains shown) VH: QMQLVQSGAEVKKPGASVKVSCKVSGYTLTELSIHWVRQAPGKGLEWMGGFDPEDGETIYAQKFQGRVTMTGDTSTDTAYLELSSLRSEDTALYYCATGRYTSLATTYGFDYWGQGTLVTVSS VL: EIVMTQSPATLSLSPGERATLSCRASQSVSPYLAWYQQKPGQAPRLLIYGASSRATGIPDRFSGSGSGTDFTLTISRLEPEDFAVYYCQQYDNWPYTFGQGTKLEIK
2. E35-scFv LS30R (scFv, V domains shown) VH: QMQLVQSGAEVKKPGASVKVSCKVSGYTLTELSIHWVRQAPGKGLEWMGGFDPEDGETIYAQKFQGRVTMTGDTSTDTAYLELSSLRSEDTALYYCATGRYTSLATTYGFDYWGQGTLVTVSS VL: EIVMTQSPATLSLSPGERATLSCRASQSVRSYLAWYQQKPGQAPRLLIYGASSRATGIPDRFSGSGSGTDFTLTISRLEPEDFAVYYCQQYDNWPYTFGQGTKLEIK
3. E35-scFv LN93Y (scFv, V domains shown) VH: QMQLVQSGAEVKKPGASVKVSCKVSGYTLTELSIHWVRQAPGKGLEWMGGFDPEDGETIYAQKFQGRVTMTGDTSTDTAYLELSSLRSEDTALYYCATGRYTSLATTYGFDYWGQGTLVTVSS VL: EIVMTQSPATLSLSPGERATLSCRASQSVSSYLAWYQQKPGQAPRLLIYGASSRATGIPDRFSGSGSGTDFTLTISRLEPEDFAVYYCQQYDYWPYTFGQGTKLEIK
4. E35-scFv LS30G (scFv, V domains shown) VH: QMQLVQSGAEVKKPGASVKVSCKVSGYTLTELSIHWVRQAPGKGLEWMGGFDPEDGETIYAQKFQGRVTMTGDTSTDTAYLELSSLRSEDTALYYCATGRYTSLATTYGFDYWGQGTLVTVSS VL: EIVMTQSPATLSLSPGERATLSCRASQSVGSYLAWYQQKPGQAPRLLIYGASSRATGIPDRFSGSGSGTDFTLTISRLEPEDFAVYYCQQYDNWPYTFGQGTKLEIK

1: 0.139; 2: 0.088; 3: 0.156; 4: 0.092
